Values were extracted from paper PMC2756588.

Target: T1, Nbp2, Q12163
T1 sequence (Q12163 103-180, looked up): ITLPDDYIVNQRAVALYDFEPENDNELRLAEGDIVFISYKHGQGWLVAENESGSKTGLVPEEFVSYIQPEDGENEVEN
Assay: SPOT array
Conditions: median of control spots 357
property: SPOT intensity

Known SPOT intensity results, listed for orientation:
* AVPPPPPPPPLPESL | 1
* KWVRRPKLMTPLTFS | 3
* APPLPPTAPPPPSLP | 0
* GAGERPRLVPRPINV | 2
* DKKTKPTPPPKPSHL | 0

A. PSRRDSLSIPRAVDA
B. TKRKRPARLIFYDSK
Q: Would you kindly point out which of A and B has the smaller SPOT intensity figure? State the label of the item chosen.
Result: A
